Data origin, for the record: PubChem BioAssay AID1963840

Catalogue of compounds with associated viability, T/C
Tested on: 695427-040-R-J1-PDC complex spheroid viability
Assay: Anticancer human tumor 695427-040-R-J1-PDC patient-derived colon adenocarcinoma cell line growth inhibition [POLQ]
Details: second compound 0.0316 µM; first compound 0.00316 µM; stronger effect = lower value
// units = %; emit number, no label

compound	viability, T/C [%]
COc1cccc(OCCCN)c1-c1cc(Nc2cnc(C#N)cn2)n[nH]1 + COC1C(OC(N)=O)C(O)C(Oc2ccc3c(O)c(NC(=O)c4ccc(O)c(CC=C(C)C)c4)c(=O)oc3c2C)OC1(C)C	103
CCc1c2c(nc3ccc(O)cc13)-c1cc3c(c(=O)n1C2)COC(=O)[C@]3(O)CC + Cc1cccc(N(C)C(=O)C2C(O)CCN2c2nc(C)cc(C(F)(F)F)c2C#N)c1	101

Request: For the compound C=CCn1c(=O)c2cnc(Nc3ccc(N4CCN(C)CC4)cc3)nc2n1-c1cccc(C(C)(C)O)n1 + COC1C(OC(N)=O)C(O)C(Oc2ccc3c(O)c(NC(=O)c4ccc(O)c(CC=C(C)C)c4)c(=O)oc3c2C)OC1(C)C , give its reported viability, T/C.
Response: 98.2

====

Catalogue of compounds with associated viability, T/C
Test system: 695427-040-R-J1-PDC complex spheroid viability
Assay: Anticancer human tumor 695427-040-R-J1-PDC cell line growth inhibition [POLQ];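 also: spheroids exposed to compounds for seven days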;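 as to viability, T/C: 100% = DMSO vehicle control viability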
Settings: second compound 1 µM; first compound 10 µM; stronger effect = lower value
// units = %; emit number, no label

compound	system.tested	value.units	viability, T/C
C=CC(=O)N1CCN(c2nc(=O)n(-c3c(C)ccnc3C(C)C)c3nc(-c4c(O)cccc4F)c(F)cc23)C(C)C1 (stereo unspecified) + COC1C(OC(N)=O)C(O)C(Oc2ccc3c(O)c(NC(=O)c4ccc(O)c(CC=C(C)C)c4)c(=O)oc3c2C)OC1(C)C	695427-040-R-J1-PDC complex spheroid viability	%	117
CC(C)n1c(=O)n(C)c2cnc3cc(F)c(-c4ccc(OCCCN5CCCCC5)nc4)cc3c21 + Nc1ccc(C#CCN(C(=O)Cc2ncc(C(F)(F)F)cc2C(F)(F)F)c2ccc(F)cc2)nn1	695427-040-R-J1-PDC complex spheroid viability	%	82.4
O=c1[nH]cc(F)c(=O)[nH]1 + COC1C(OC(N)=O)C(O)C(Oc2ccc3c(O)c(NC(=O)c4ccc(O)c(CC=C(C)C)c4)c(=O)oc3c2C)OC1(C)C	695427-040-R-J1-PDC complex spheroid viability	%	96.8

Request: For the compound CC1COCCN1c1cc(-c2ccnn2C)c2ccnc(-c3ccn[nH]3)c2n1 (stereo unspecified) + Nc1ccc(C#CCN(C(=O)Cc2ncc(C(F)(F)F)cc2C(F)(F)F)c2ccc(F)cc2)nn1 , give its reported viability, T/C.
Response: 51.4

Request: For the compound CNCc1ccc(-c2[nH]c3cc(F)cc4c3c2CCNC4=O)cc1 + COC1C(OC(N)=O)C(O)C(Oc2ccc3c(O)c(NC(=O)c4ccc(O)c(CC=C(C)C)c4)c(=O)oc3c2C)OC1(C)C , give its reported viability, T/C.
Response: 115

Request: For the compound O=C(c1cc(Cc2n[nH]c(=O)c3ccccc23)ccc1F)N1CCN(C(=O)C2CC2)CC1 + COC1C(OC(N)=O)C(O)C(Oc2ccc3c(O)c(NC(=O)c4ccc(O)c(CC=C(C)C)c4)c(=O)oc3c2C)OC1(C)C , give its reported viability, T/C.
Response: 101

Request: For the compound CNCc1ccc(-c2[nH]c3cc(F)cc4c3c2CCNC4=O)cc1 + Nc1ccc(C#CCN(C(=O)Cc2ncc(C(F)(F)F)cc2C(F)(F)F)c2ccc(F)cc2)nn1 , give its reported viability, T/C.
Response: 107

Request: For the compound COc1cc2cc(C(=O)CCC(=O)O)sc2cc1OC + Nc1ccc(C#CCN(C(=O)Cc2ncc(C(F)(F)F)cc2C(F)(F)F)c2ccc(F)cc2)nn1 , give its reported viability, T/C.
Response: 89.7

Request: For the compound CCc1cc2c(N3CCc4c(cc(Cn5ccnc5)cc4-c4cn(C)nc4C(F)(F)F)C3=O)ccnc2c(OC)n1 + Nc1ccc(C#CCN(C(=O)Cc2ncc(C(F)(F)F)cc2C(F)(F)F)c2ccc(F)cc2)nn1 , give its reported viability, T/C.
Response: 84.5

Request: For the compound O=C(Nc1ccc(O)c(NS(=O)(=O)c2ccc(F)cc2)c1)c1ccc(-c2ccccc2)cc1 + Cc1cccc(N(C)C(=O)C2C(O)CCN2c2nc(C)cc(C(F)(F)F)c2C#N)c1 , give its reported viability, T/C.
Response: 92.3

Request: For the compound COc1cc(C2c3cc4c(cc3C(OC3OC5COC(C)OC5C(O)C3O)C3COC(=O)C23)OCO4)cc(OC)c1O (stereo unspecified) + Cc1cccc(N(C)C(=O)C2C(O)CCN2c2nc(C)cc(C(F)(F)F)c2C#N)c1 , give its reported viability, T/C.
Response: 77.1

====

System: 695427-040-R-J1-PDC complex spheroid viability
Test: Anticancer human tumor 695427-040-R-J1-PDC cell line growth inhibition [POLQ];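 also: spheroids exposed to compounds for seven days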
Details: curve of first compound; second compound 0.0316 µM
pIC50: −log10 of the molar value.
property.name: pIC50

# annotated cases, reported pIC50 shown
compound	property.name	reported
COc1cc2cc(C(=O)CCC(=O)O)sc2cc1OC + COC1C(OC(N)=O)C(O)C(Oc2ccc3c(O)c(NC(=O)c4ccc(O)c(CC=C(C)C)c4)c(=O)oc3c2C)OC1(C)C	pIC50	< 5.00
CC1COCCN1c1cc(C2(O)CC3CCC(C2)O3)c2cnn(-c3ccn[nH]3)c2n1 (centres undefined) + Nc1ccc(C#CCN(C(=O)Cc2ncc(C(F)(F)F)cc2C(F)(F)F)c2ccc(F)cc2)nn1	pIC50	< 5.00
C=CCn1c(=O)c2cnc(Nc3ccc(N4CCN(C)CC4)cc3)nc2n1-c1cccc(C(C)(C)O)n1 + Nc1ccc(C#CCN(C(=O)Cc2ncc(C(F)(F)F)cc2C(F)(F)F)c2ccc(F)cc2)nn1	pIC50	< 6.00

Kindly consider the entry below.
Request: For the compound CC(=O)O[C@H]1C(=O)[C@@]2(C)[C@H]([C@H](OC(=O)c3ccccc3)[C@]3(O)C[C@H](OC(=O)[C@H](O)[C@@H](NC(=O)c4ccccc4)c4ccccc4)C(C)=C1C3(C)C)[C@]1(OC(C)=O)CO[C@@H]1C[C@@H]2O + COC1C(OC(N)=O)C(O)C(Oc2ccc3c(O)c(NC(=O)c4ccc(O)c(CC=C(C)C)c4)c(=O)oc3c2C)OC1(C)C , give its reported pIC50.
Response: < 5.52

====

Tested on: 695427-040-R-J1-PDC complex spheroid viability
Assay: Anticancer human tumor 695427-040-R-J1-PDC cell line growth inhibition [POLQ];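 also: spheroids exposed to compounds for seven days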;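 as to viability, T/C: 100% = DMSO vehicle control viability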
Details: second compound 0.1 µM; first compound 0.316 µM; stronger effect = lower value
I'd appreciate it if you marked entries true (1) when viability, T/C is lower than 90% and false (0) when it is not.

compound	answer.label
CC1COCCN1c1cc(-c2ccnn2C)c2ccnc(-c3ccn[nH]3)c2n1 (stereo not given) + Nc1ccc(C#CCN(C(=O)Cc2ncc(C(F)(F)F)cc2C(F)(F)F)c2ccc(F)cc2)nn1	true (1)

Request: Bench note: check whether CC1COCCN1c1cc(C2(S(C)(=N)=O)CC2)nc(-c2ccnc3[nH]ccc23)n1 (stereo not given) + Nc1ccc(C#CCN(C(=O)Cc2ncc(C(F)(F)F)cc2C(F)(F)F)c2ccc(F)cc2)nn1 shows viability, T/C below 90%
Response: false (0)

Request: Bench note: check whether O=C(c1cc(Cc2n[nH]c(=O)c3ccccc23)ccc1F)N1CCN(C(=O)C2CC2)CC1 + COC1C(OC(N)=O)C(O)C(Oc2ccc3c(O)c(NC(=O)c4ccc(O)c(CC=C(C)C)c4)c(=O)oc3c2C)OC1(C)C shows viability, T/C below 90%
Response: false (0)

====

Tested on: 695427-040-R-J1-PDC complex spheroid viability
Test: Anticancer human tumor 695427-040-R-J1-PDC cell line growth inhibition [POLQ];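 also: spheroids exposed to compounds for seven days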;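 as to viability, T/C: 100% = DMSO vehicle control viability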
Conditions: second compound 10 µM; first compound 10 µM; stronger effect = lower value
Procedure: Multicellular complex tumor spheroid response to Polymerase (POL) inhibitors (novobiocin, ART-558, RP6685) in combination with a variety of drugs and investigational agents in selected tumor cell lines The POL inhibitors (novobiocin, ART-558, and RP6685) were evaluated both individually and in combination with standard of care and investigational anticancer small molecules within a complex spheroid model of solid tumors. . […]
property.name: viability, T/C (%)
// units = %; emit number, no label

# annotated cases, reported viability, T/C shown
compound	system.tested	value.units	viability, T/C
CC(C)n1c(=O)n(C)c2cnc3cc(F)c(-c4ccc(OCCCN5CCCCC5)nc4)cc3c21 + Cc1cccc(N(C)C(=O)C2C(O)CCN2c2nc(C)cc(C(F)(F)F)c2C#N)c1	695427-040-R-J1-PDC complex spheroid viability	%	55.7
CCc1cc2c(N3CCc4c(cc(Cn5ccnc5)cc4-c4cn(C)nc4C(F)(F)F)C3=O)cc(C)nc2c(OC)n1 + Nc1ccc(C#CCN(C(=O)Cc2ncc(C(F)(F)F)cc2C(F)(F)F)c2ccc(F)cc2)nn1	695427-040-R-J1-PDC complex spheroid viability	%	97.9
COc1cc(C2c3cc4c(cc3C(OC3OC5COC(C)OC5C(O)C3O)C3COC(=O)C23)OCO4)cc(OC)c1O (stereo not given) + COC1C(OC(N)=O)C(O)C(Oc2ccc3c(O)c(NC(=O)c4ccc(O)c(CC=C(C)C)c4)c(=O)oc3c2C)OC1(C)C	695427-040-R-J1-PDC complex spheroid viability	%	83.2
O=C(c1cc(Cc2n[nH]c(=O)c3ccccc23)ccc1F)N1CCN(C(=O)C2CC2)CC1 + Cc1cccc(N(C)C(=O)C2C(O)CCN2c2nc(C)cc(C(F)(F)F)c2C#N)c1	695427-040-R-J1-PDC complex spheroid viability	%	78.9

Request: For the compound COc1cc2cc(C(=O)CCC(=O)O)sc2cc1OC + COC1C(OC(N)=O)C(O)C(Oc2ccc3c(O)c(NC(=O)c4ccc(O)c(CC=C(C)C)c4)c(=O)oc3c2C)OC1(C)C , give its reported viability, T/C.
Response: 109
